Where do these numbers come from? They come from patent US5051438A.

Test system: Human neutrophils
ASSAY PROTOCOL: Modified Boyden Chamber Chemotaxis, LTB4-induced
Type: cell-based
RUN PARAMETERS: Homo sapiens, Neutrophil, 1.5 h; value in parentheses; 3×10^-8 M LTB4, 90 minutes, 37° C
ENDPOINT: IC50 (nM)
# number only, unit nM dropped from output

Entry CCCc1c(OCCCOc2ccc(C(C)=O)c(OC)c2CCC)ccc2c1OC(C(=O)O)CC2 (stereo not shown) [Example 1(b), reference compound] , IC50 reported as 1800

---

Tested on: Human neutrophils
ASSAY PROTOCOL: Modified Boyden Chamber Chemotaxis, fMLP-induced
Type: cell-based
RUN PARAMETERS: Homo sapiens, Neutrophil, 1.5 h; value in parentheses; 1.0×10^-8 M fMLP, 90 minutes, 37° C
ENDPOINT: pIC50
Scale: pIC50 equals -log10([C]), with [C] in mol/L.

Looking up CCCc1c(OCCCOc2ccc(C(C)=O)c(OC)c2CCC)ccc2c1OC(C(=O)O)CC2 (stereo not shown) [Example 1(b), reference compound] , I see its pIC50 listed as 5.27
